Biological target: T1, Rhesus SLC34A2 (Rhesus, UniProt F7HDA3 1-690)
T1 construct: whole, on cells
T1 sequence: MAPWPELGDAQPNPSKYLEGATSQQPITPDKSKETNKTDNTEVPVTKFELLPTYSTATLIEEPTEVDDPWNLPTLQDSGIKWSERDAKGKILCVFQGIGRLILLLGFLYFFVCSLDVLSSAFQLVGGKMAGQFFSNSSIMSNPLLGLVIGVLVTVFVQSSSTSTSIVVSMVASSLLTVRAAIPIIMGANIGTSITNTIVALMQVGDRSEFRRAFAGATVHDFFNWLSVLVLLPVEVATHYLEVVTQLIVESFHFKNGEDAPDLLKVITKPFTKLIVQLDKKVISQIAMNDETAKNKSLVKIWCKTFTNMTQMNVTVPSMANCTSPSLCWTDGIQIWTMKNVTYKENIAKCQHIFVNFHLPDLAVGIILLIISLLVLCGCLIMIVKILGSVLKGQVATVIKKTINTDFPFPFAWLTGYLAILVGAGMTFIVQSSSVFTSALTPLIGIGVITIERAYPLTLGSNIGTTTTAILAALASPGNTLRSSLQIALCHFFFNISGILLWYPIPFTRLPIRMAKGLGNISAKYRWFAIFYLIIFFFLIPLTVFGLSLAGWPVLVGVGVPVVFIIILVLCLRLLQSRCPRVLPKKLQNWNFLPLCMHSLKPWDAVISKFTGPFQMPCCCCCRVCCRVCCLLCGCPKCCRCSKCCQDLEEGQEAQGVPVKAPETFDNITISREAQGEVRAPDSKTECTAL
Test: FACS, HEK293/Rhesus SLC34A2 cells
endpoint: Top (MFI)
Numbers only, in MFI.

Recorded Top (MFI), per entry:
- binder: "xi16E5D10 hIgG1 (antibody, V domains shown, chimeric, hIgG1) VH: QVQLQQPGAELVKPGASVMMSCKASGYTFSNHNLHWLKKTPGQGLDWIGAIYPGNGDTSYNQKFKGRATLTVDKSSNTAYMQFSSLTSEDSAVFYCARGKYGNGAMDYWGQGTAVTVSS VL: DIVMTQSHKFMSTSVGDRVSITCRASQDVGTAVVWYQQKLGQSPKLLFDWASSRHTGVPDRFTGSGSGTDFTLTITDVQSEDLADYFCQQYSRQPLTFGAGTKLELK"
  Top (MFI): 14800
- binder: "xi87H12B7 hIgG1 (antibody, V domains shown, chimeric, hIgG1) VH: QVQLQQPGAEVVRPGASVKMSCKASGYTFTSYIVHWVKQPPGQGLEWIGAIYPGNGDTSYIQKFKGRATLTADKSSSTVYMQLSSLTSEDSAVYYCARGHYYGSAAWFGFWGQGTLVTVSA VL: DILLTQSPAILSVSPGERVSFSCRASQNIGTSIHWYQQRTNDSPRLLMRYASESVSGIPSRFSGSGSGTDFTLSINSVESEDIADYYCQQSNTWPLTFGAGTKLELK"
  Top (MFI): 18300
- binder: "xi28G3C6B9 hIgG1 (antibody, V domains shown, chimeric, hIgG1) VH: QVQLQQPGAEVVKPGASVKMSCKASGYTFTSYIIHWVKQAPGQGLEWIGAIYPGNGDTSYSQRFKGKAKLTADKSSSTAYMQLNSLTSEDSVVYYCARGNNYGSPAWFGYWGQGTLVTVSA VL: DIVLTQSPVTLSVTPGDRVSLSCRASQSIGNFLYWYQQKSHESPRLLIKYASQSMSGIPSRFSGSGSGTDFTLSISRVETEDFGMYFCQQSNSWPVTFGAGTKLELK"
  Top (MFI): 13400
- binder: "xi94B10A8 hIgG1 (antibody, V domains shown, chimeric, hIgG1) VH: QVQLQQTGAELVKPGASVKMSCKASGYTFTGYIIHWIKQRPGQGLEWIGAIYPGNGDTSYNQKIKGRATLTADKSSTTAYMQLSSLTSEDSAVYYCARGDYGNPAWFAYWGQGTLVTVSA VL: DVVLTQSPATLSVTPGDRVSLSCRASQSISNYLYWYQQKAHESPRLLIKFASQSISGIPSRFRGSGSGTDFTLSINSVETEDFGMYFCQQSNKWPLTFGAGTKLELK"
  Top (MFI): 13700
- binder: "xi63A11D5B4 hIgG1 (antibody, V domains shown, chimeric, hIgG1) VH: QVQLQQPGAELVKPGASVKMSCRTSGYTFITYNMHWVKQTPGQGREWIGAIYPGNGDTSYNQKFKGKATLTADKSSSTAYMQLNSLTSEDSAVYYCSISTIITTGAVDYWGQGTSVTVAS VL: DIVMTQSHKFMSTSVGDRVSITCKASQDVGTAVAWYQQKAGQSPKLLIYWTSTRHTGVPDRFTGSGSGTDFTLIIRSLQSEDLADYFCQQYSRIPLTFGSGTKLEIK"
  Top (MFI): 15100

Below are some binders; for each one, tell me its Top (MFI).
1. xi94E9B12 hIgG1 (antibody, V domains shown, chimeric, hIgG1) VH: QVQLQQPGAELVKPGASVKMSCKASGYTFTSYNMQWVKQTYGQGLEWIGAISPGSGETSYNQNFKVKATLTADKISSTAYMQLSSLTSEDSAVYYCARAARAEGWFAYWGQGTLVTVSA VL: DIVMTQSHKFMSTSVGDRVSITCKASQDVGHAVVWYQQKPGQFPKLLIYWASTRHAGVPDRFTGSGSGTDFTLTISNVQSEDLADYFCQQFRSIPLTFGSGTKLEIK
2. xi55E5B6D12 hIgG1 (antibody, V domains shown, chimeric, hIgG1) VH: QVQLQQSGAEVVNSGASVKMSCKASGYTFTTYNMHWVKQTPGQGLEWIGAIYPGNGDTSYNQRFKGKATFTADRSSGTAYMQLSSLPSEDSAVYYCARGGYANGALVDWGQGTLVTVSA VL: DILMTQSHKFMSTSVGDRVTITCKASQDVGTAVAWYQNKPGQSPKLLIFWTSTRHTGVPDRFTGSGSGTDFTLTISNVQSEDLADYFCQQYSRQPLTFGPGTKLEIK
3. xi78D1B10 hIgG1 (antibody, V domains shown, chimeric, hIgG1) VH: QVQLQQPGADLVKPGASVKLSCKASGFTFTSYIIHWVKQTPGQGLEWIGAIYPGNGDTSYIQKFKGRATLTADKSSTTAYMQLGGLTSEDSAVYYCARGTYGSSAWFVYWGQGTLVTVSA VL: DIVLTQSPATLSVTPGDSVSLSCRASQSISNNLYWYQQKSHESPRLLIKYASQSISGIPSRFRGSGSGTDFTLSINSVETEDFGMYFCQQSNSWPLTFGAGTKLELK

Reply:
18700
15900
16000

Below are some binders; for each one, tell me its Top (MFI).
1. xi90G10H7 hIgG1 (antibody, V domains shown, chimeric, hIgG1) VH: QVQLQQPGAVLVKPGASVKMSCKASGYTFTSYIIHWVKQTPGQGLEWVGAIYPGNGDASSIQKFKGKATLTVDKSSSTAYMQLSSLTSADSAVYYCARGHYYGSAAWFAYWGQGTLVTVSA VL: DILLTQSPAILSVSPGERVSFSCRASQNIGTGIHWYQQRTNGSLRLLIKYASESISGIPSRFSGSGSGTDFTLSINSVESEDIADYYCQQSNSWPLTFGAGTKLELK
2. xi84F2D10 hIgG1 (antibody, V domains shown, chimeric, hIgG1) VH: QVQLQQPGAVLVKPGASVKMSCKASGYTFTSYNLHWVKQTPGQGLEWIGAIYPGNGDTSYIQKFKGKATLTADKSSSTAYMQLSSLTSEDSAVYYCARGKYGNYEGFAYWGQGTLVTVSA VL: DILLTQSPAILSVSPGERVSISCRASQSIGTSIYWYQQRRNGSPRLLIKFASESISGIPSRFSGSGSGTDFTLSINSVESEDIADYYCQQNNRWPFTFGSGTKLEIK

Reply:
1. 18500
2. 8840
